Origin of the recorded values: PubChem BioAssay (NCI)

system: ACHN renal; experiment: NCI-60 one-dose screen, 48 h; conditions: 10 µM unless noted
The panel holds about 83,000 compounds, 20% with a hit somewhere; the sample as a whole holds those more often. The source made the active and inactive calls. Rule for the calls: active = growth percent below 10; inactive = the rest.
Answer with one of the outcomes given here: 1 = active, -1 = inactive

*Q* Entry CCCCC1CCCC12NC(=O)NC2=O (stereo not given) : call = ?
*A* -1

*Q* Entry CCCCC[C@H](O)C/C=C1/C(=O)C=C[C@@H]1C/C=C\CCCC(=O)OC : call = ?
*A* -1

*Q* Entry CC([C@H]1CCC2C3CCC4C[C@@H](NC=O)CC[C@]4(C)C3CC[C@@]21C)N(C)C (stereo not given in full) : call = ?
*A* 1

*Q* Entry COC(=O)CCC/C=C\C[C@H]1C=CC(=O)/C1=C/C[C@@H](O)CCc1cccc(C(F)(F)F)c1 : call = ?
*A* 1

*Q* Entry Cc1ccc(C(=O)N/N=C/c2cccc(Oc3ccccc3)c2)cn1 : call = ?
*A* -1

*Q* Entry CSc1ncccc1C(=O)OCC(=O)Nc1oc(C)c2c(C)n[nH]c(=O)c12 : call = ?
*A* -1

*Q* Entry Cc1ccc(-c2nc3c(c(-c4ccccc4)nn3-c3ccccc3)c(-c3ccc(O)cc3)c2C#N)cc1 : call = ?
*A* -1

*Q* Entry O=C(N/N=C/c1ccc(Cl)cc1)c1ccc(C(F)(F)F)nc1Nc1cccc(C(F)(F)F)c1 : call = ?
*A* -1

*Q* Entry CCCCn1c(=O)c(-c2cc(-c3ccc(Cl)cc3)nc(-c3ccc(Cl)cc3)c2)cc2cc(Cl)ccc21 : call = ?
*A* -1

*Q* Entry c1ccc2c(c1)Nc1ccncc1S2 : call = ?
*A* -1

*Q* Entry CNCCCNc1nc2ccccc2c2c(=O)c3cc(F)ccc3sc12 : call = ?
*A* -1

*Q* Entry Cc1cccc2c(=O)c3c(sc12)c(NCc1ccccc1)nc1ccccc13 : call = ?
*A* -1

*Q* Entry COc1ccc(C(Cc2ccccc2)NCCN2CCOCC2)cc1 (stereo not given) : call = ?
*A* -1

*Q* Entry CCCCn1c(-c2ccc(-c3nc(-c4ccc(Cl)cc4)no3)cc2)nc(-c2ccccc2)c1-c1ccccc1 : call = ?
*A* -1

*Q* Entry Cc1cc(Cl)ccc1NS(=O)(=O)c1ccc(-c2cnc(C3CC3)o2)cc1 : call = ?
*A* -1

*Q* Entry C#C[C@]1(O)CC[C@H]2[C@@H]3CC=C4c5sc(Nc6ccccc6)nc5CC[C@]4(C)[C@H]3CC[C@@]21C : call = ?
*A* -1

*Q* Entry COc1ccc(-c2conc2-c2ccccc2)cc1 : call = ?
*A* -1

*Q* Entry CCCCCCCCCCCCCCCCCCOc1ccccc1CC(=O)OCC[N+](CC)(CC)CC : call = ?
*A* -1

*Q* Entry Nc1nc(-c2cccc3ccccc23)cc2ccccc12 : call = ?
*A* -1

*Q* Entry COc1cc2cc(Oc3ccc(NC(=O)Nc4cc(C(F)(F)F)cc(C(F)(F)F)c4)cc3)c(C)nc2cc1OCCN1CCOCC1 : call = ?
*A* 1
